assay.target: κ opioid receptor (Homo sapiens (Human), UniProt P41145)
test.method.notes: κ-opioid receptor [35S]GTPγS functional assay, U-2 OS cells
Format: biochemical
stated.conditions: κ GTP, relative to U69,593, read-out: Activity Response κ Emax (%)
Recorded Emax, one value per entry.
reported.metric: Emax (%)

CN1CC[C@]23CC(=O)[C@@H](CC(=O)O)C[C@@]2(O)[C@H]1Cc1ccc(O)cc13
90
COCC[C@H]1C[C@@]2(O)[C@H]3Cc4ccc(OC)cc4[C@@]2(CCN3CC2CC2)CC1=O
108
CC(C)(C)C[C@H]1C[C@@]2(O)[C@H]3Cc4ccc(O)cc4[C@@]2(CCN3CC2CC2)CC1=O
69
CN1CC[C@]23CC(=O)[C@@H](CC(=O)N4CCCCC4)C[C@@]2(O)[C@H]1Cc1ccc(O)cc13
43
O=C1C[C@]23CCN(CC4CC4)[C@H](Cc4ccc(OCc5ccccc5)cc42)[C@]3(O)C[C@@H]1CCO
96
O=C(N[C@H]1C[C@@]2(O)[C@H]3Cc4ccc(O)cc4[C@@]2(CCN3CC2CC2)CC1=O)c1ccccc1
99
COc1ccc2c(c1)[C@]13CCN(CC4CC4)[C@H](C2)[C@]1(O)C/C(=C\CC(C)C)C(=O)C3
62.7
O=C(N[C@H]1C[C@@]2(O)[C@H]3Cc4ccc(O)cc4[C@@]2(CCN3CC2CC2)CC1=O)C1CCCC1
85.7
O=C(N[C@H]1C[C@@]2(O)[C@H]3Cc4ccc(O)cc4[C@@]2(CCN3CC2CC2)CC1=O)C1CCCCC1
95.3
COc1ccc2c(c1)[C@]13CCN(C)[C@H](C2)[C@]1(O)C[C@H](CCOCc1ccccc1)C(=O)C3
74

----------
Recorded Emax, one value per entry.
assay.target: μ-opioid receptors (Homo sapiens (Human))
test.method.notes: μ-opioid receptor [35S]GTPγS functional assay, U-2 OS cells
Type: biochemical
stated.conditions: μ GTP, relative to DAMGO, read-out: Activity Response μ Emax (%)
Protocol: [^35S]GTPγS functional assays were conducted using freshly thawed μ-receptor membranes prepared from a cell line expressing recombinant μ opioid receptor in a HEK-293, CHO or U-2 OS cell background or purchased from a commercial source (Perkin Elmer, Shelton, Conn.; or DiscovRx, Fremont, Calif.). […] BetaScint scintillation cocktail (Perkin Elmer, Shelton, Conn.) was added (50 μl/well) and plates were counted using a Packard Top-Count for 1 min/well. […]
reported.metric: Emax (%)

CC(C)(C)C[C@H]1C[C@@]2(O)[C@H]3Cc4ccc(O)cc4[C@@]2(CCN3CC2CC2)CC1=O
3
O=C1C[C@]23CCN(CC4CC4)[C@H](Cc4ccc(O)cc42)[C@]3(O)C[C@@H]1CC1CCCC1
4
CC(C)(C)C(=O)N[C@H]1C[C@@]2(O)[C@H]3Cc4ccc(O)cc4[C@@]2(CCN3CC2CC2)CC1=O
11.3
COc1ccc2c(c1)[C@]13CCN(C)[C@H](C2)[C@]1(O)C[C@H](CC(=O)N1CCC(O)CC1)C(=O)C3
36.7
COc1ccc2c(c1)[C@]13CCN(C)[C@H](C2)[C@]1(O)C[C@H](CC(=O)N1CCCC1)C(=O)C3
77
COc1ccc2c(c1)[C@]13CCN(CC4CC4)[C@H](C2)[C@@H]1C[C@@H](C(C)C)C(=O)C3
60

----------
assay.target: κ opioid receptor (Homo sapiens (Human), UniProt P41145)
test.method.notes: κ-opioid receptor [35S]GTPγS functional assay, U-2 OS cells
Format: biochemical
stated.conditions: κ GTP, read-out: Activity Response κ EC50 (nM) [mean ± SEM]
Each entry below lists one item and its recorded EC50 value.
reported.metric: EC50 (nM)

COc1ccc2c(c1)[C@]13CCN(C)[C@H](C2)[C@]1(O)C[C@H](CCOCc1ccccc1)C(=O)C3
7900
COc1ccc2c(c1)[C@]13CCN(CC4CC4)[C@H](C2)[C@]1(O)C[C@H](O)C(=O)C3
876
CC(C)[C@H]1C[C@H]2[C@H]3Cc4ccc(O)cc4[C@@]2(CCN3CC2CC2)CC1=O
1.42
CC(C)CC[C@H]1C[C@@]2(O)[C@H]3Cc4ccc(O)cc4[C@@]2(CCN3CC2CC2)CC1=O
4.71
CC(C)(C)C(=O)N[C@H]1C[C@@]2(O)[C@H]3Cc4ccc(O)cc4[C@@]2(CCN3CC2CC2)CC1=O
17.5
O=C(N[C@H]1C[C@@]2(O)[C@H]3Cc4ccc(O)cc4[C@@]2(CCN3CC2CC2)CC1=O)C1CCCC1
13.6
CC(C)CC(=O)N[C@H]1C[C@@]2(O)[C@H]3Cc4ccc(O)cc4[C@@]2(CCN3CC2CC2)CC1=O
36.1
CN1CC[C@]23CC(=O)[C@@H](CC(=O)N4CCCCC4)C[C@@]2(O)[C@H]1Cc1ccc(O)cc13
1200
COc1ccc2c(c1)[C@]13CCN(C)[C@H](C2)[C@]1(O)C[C@H](CC(=O)O)C(=O)C3
14900
CCCC[C@H]1C[C@@]2(O)[C@H]3Cc4ccc(O)cc4[C@@]2(CCN3CC2CC2)CC1=O
3
CC(C)(C)C[C@H]1C[C@@]2(O)[C@H]3Cc4ccc(O)cc4[C@@]2(CCN3CC2CC2)CC1=O
20.5
O=C1C[C@]23CCN(CC4CC4)[C@H](Cc4ccc(O)cc42)[C@]3(O)C[C@@H]1CCO
4.82
CC[C@H](C)C(=O)N[C@H]1C[C@@]2(O)[C@H]3Cc4ccc(O)cc4[C@@]2(CCN3CC2CC2)CC1=O
42.1
O=C(N[C@H]1C[C@@]2(O)[C@H]3Cc4ccc(O)cc4[C@@]2(CCN3CC2CC2)CC1=O)C1CCCCC1
2.3
COc1ccc2c(c1)[C@]13CCN(CC4CC4)[C@H](C2)[C@]1(O)C[C@H](OCC(C)C)C(=O)C3
5560
O=C(N[C@H]1C[C@@]2(O)[C@H]3Cc4ccc(O)cc4[C@@]2(CCN3CC2CC2)CC1=O)c1ccccc1
4.28
C[C@H](NC(=O)C[C@H]1C[C@@]2(O)[C@H]3Cc4ccc(O)cc4[C@@]2(CCN3C)CC1=O)C(=O)O
16600

----------
assay.target: recombinant human kappa opioid receptor (κ) (Homo sapiens (Human), UniProt P41145)
test.method.notes: κ-opioid receptor radioligand dose displacement binding assay ([3H]-U69,593)
stated.conditions: mean ± SEM, read-out: Binding Affinity Opioid Receptor Ki (nM) [mean ± SEM] κ
Form field: Ki (one value per entry).
reported.metric: Ki (nM)

O=C(O)C[C@H]1C[C@@]2(O)[C@H]3Cc4ccc(O)cc4[C@@]2(CCN3CC2CC2)CC1=O [Compound 9]
0.97
COc1ccc2c(c1)[C@]13CCN(CC4CC4)[C@H](C2)[C@]1(O)C[C@H](CC(=O)N[C@@H](CC(C)C)C(=O)O)C(=O)C3 [Compound 18]
15900
O=C(O)CC1(CC(=O)O)C[C@@]2(O)[C@H]3Cc4ccc(O)cc4[C@@]2(CCN3CC2CC2)CC1=O [Compound 12]
3410
C[C@H](NC(=O)C[C@H]1C[C@@]2(O)[C@H]3Cc4ccc(O)cc4[C@@]2(CCN3CC2CC2)CC1=O)C(=O)O [Compound 15]
191
CC(C)[C@@H]1C[C@H]2[C@H]3Cc4ccc(O)cc4[C@@]2(CCN3CC2CC2)CC1=O [Compound 73]
0.32
COc1ccc2c(c1)[C@]13CCN(CC4CC4)[C@H](C2)[C@]1(O)C[C@H](CCO)C(=O)C3 [Compound 46]
394
COc1ccc2c(c1)[C@]13CCN(CC4CC4)[C@H](C2)[C@]1(O)C[C@H](CCOCc1ccccc1)C(=O)C3 [Compound 48]
65.3
COc1ccc2c(c1)[C@]13CCN(CC4CC4)[C@H](C2)[C@@H]1C[C@@H](C(C)C)C(=O)C3 [Compound 72]
82.9

All figures here come from patent US9388162B2.
